# Target or system: T1, CD3 epsilon homodimer protein (UniProt P07766 23-126)
# T1 construct: also called CD3 (CD3 epsilon)
# T1 sequence (P07766 23-126): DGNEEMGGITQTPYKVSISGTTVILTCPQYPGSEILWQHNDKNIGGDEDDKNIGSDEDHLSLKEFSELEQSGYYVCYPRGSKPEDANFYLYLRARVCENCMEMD
# Measurement protocol: SPR, antibody over immobilised CD3e homodimer;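 note: SPR at 25 °C with CD3 epsilon homodimer amine-coupled to a CM4 sensor chip and antibody flowed over as analyte in HBS-EP+ running buffer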
// reported KD ratio to GLS3000 for each item listed
// no unit string in output, number only

Solved cases (2 shown):
- Binder: "CE115HA000/GLS3000 T31K (antibody, IgG1, name in Kabat numbering, V domains shown, one-arm IgG1) VH: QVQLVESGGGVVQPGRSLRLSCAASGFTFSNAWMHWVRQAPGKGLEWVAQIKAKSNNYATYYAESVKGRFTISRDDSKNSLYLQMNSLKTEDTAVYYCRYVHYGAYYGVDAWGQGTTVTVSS VL: DIVMTQSPLSLPVTPGEPASISCRSSQSLVHSNRNKYLHWYQQKPGQAPRLLIYKVSNRFSGVPDRFSGSGSGTDFTLKISRVEAEDVGVYYCGQGTQVPYTFGQGTKLEIK"
  Measured: 0.88
- Binder: "CE115HA000/GLS3000 R24Q (antibody, IgG1, name in Kabat numbering, V domains shown, one-arm IgG1) VH: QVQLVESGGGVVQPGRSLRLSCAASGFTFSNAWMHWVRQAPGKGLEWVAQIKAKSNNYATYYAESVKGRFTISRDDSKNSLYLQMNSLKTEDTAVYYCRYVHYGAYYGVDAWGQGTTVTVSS VL: DIVMTQSPLSLPVTPGEPASISCQSSQSLVHSNRNTYLHWYQQKPGQAPRLLIYKVSNRFSGVPDRFSGSGSGTDFTLKISRVEAEDVGVYYCGQGTQVPYTFGQGTKLEIK"
  Measured: 0.87

Let's switch to this binder now.
Need KD ratio to GLS3000 of CE115HA000/GLS3000 T92I (antibody, IgG1, name in Kabat numbering, V domains shown, one-arm IgG1) VH: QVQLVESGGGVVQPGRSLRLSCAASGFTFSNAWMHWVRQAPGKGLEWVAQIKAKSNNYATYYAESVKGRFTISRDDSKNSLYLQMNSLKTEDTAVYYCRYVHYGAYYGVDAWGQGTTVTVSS VL: DIVMTQSPLSLPVTPGEPASISCRSSQSLVHSNRNTYLHWYQQKPGQAPRLLIYKVSNRFSGVPDRFSGSGSGTDFTLKISRVEAEDVGVYYCGQGIQVPYTFGQGTKLEIK , thanks.
1.91
